Subject of test: T1, human CTLA4 on CHO cells (human, UniProt P16410 36-223)
T1 construct: whole, on cells; CHO cells stably expressing CTLA4; also called huCTLA4
Experiment: flow cytometry, CHO cells stably expressing CTLA4

{"columns": ["Binder", "Units symbol", "MFI at 33.3 nM"],
 "data": [
  ["variant CD80 IgV-Fc E35D/M47V (Fc fusion, not shown: a dimerising Fc or GST) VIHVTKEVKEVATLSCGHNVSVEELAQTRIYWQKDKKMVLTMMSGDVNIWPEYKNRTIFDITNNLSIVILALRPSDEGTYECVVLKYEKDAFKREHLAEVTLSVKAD", "MFI", 20900],
  ["variant CD80 IgV-Fc E35D/M47V/T62S/L85Q (Fc fusion, not shown: a dimerising Fc or GST) VIHVTKEVKEVATLSCGHNVSVEELAQTRIYWQKDKKMVLTMMSGDVNIWPEYKNRTIFDISNNLSIVILALRPSDEGTYECVVQKYEKDAFKREHLAEVTLSVKAD", "MFI", 31200],
  ["CD80 WT IgV-Fc (Fc fusion, not shown: a dimerising Fc or GST, also called WT CD80 IgV-Fc; wild-type CD80 IgV-Fc) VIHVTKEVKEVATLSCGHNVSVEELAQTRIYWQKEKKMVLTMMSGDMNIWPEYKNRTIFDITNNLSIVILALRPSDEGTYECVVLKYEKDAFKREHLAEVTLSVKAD", "MFI", 1920],
  ["variant CD80 IgV-Fc E35D/D46E/M47I (Fc fusion, not shown: a dimerising Fc or GST) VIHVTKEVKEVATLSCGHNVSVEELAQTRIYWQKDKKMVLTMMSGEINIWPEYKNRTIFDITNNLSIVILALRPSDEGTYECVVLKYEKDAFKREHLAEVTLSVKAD", "MFI", 21400],
  ["variant CD80 IgV-Fc E35D/M47V/L85M/R94Q (Fc fusion, not shown: a dimerising Fc or GST) VIHVTKEVKEVATLSCGHNVSVEELAQTRIYWQKDKKMVLTMMSGDVNIWPEYKNRTIFDITNNLSIVILALRPSDEGTYECVVMKYEKDAFKQEHLAEVTLSVKAD", "MFI", 23300],
  ["variant CD80 IgV-Fc M43I/M47L/A71G (Fc fusion, not shown: a dimerising Fc or GST) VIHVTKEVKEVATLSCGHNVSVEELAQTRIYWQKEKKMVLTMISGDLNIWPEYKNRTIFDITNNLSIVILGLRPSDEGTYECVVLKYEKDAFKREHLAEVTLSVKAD", "MFI", 23300],
  ["variant CD80 IgV-Fc E35D/T41S/N48I (Fc fusion, not shown: a dimerising Fc or GST, also called E35D/T41S/N48T) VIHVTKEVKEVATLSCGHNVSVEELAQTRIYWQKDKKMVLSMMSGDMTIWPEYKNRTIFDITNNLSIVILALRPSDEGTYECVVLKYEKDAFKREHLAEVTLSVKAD", "MFI", 30300],
  ["variant CD80 IgV-Fc E35D/M47I/N48K/I61F (Fc fusion, not shown: a dimerising Fc or GST) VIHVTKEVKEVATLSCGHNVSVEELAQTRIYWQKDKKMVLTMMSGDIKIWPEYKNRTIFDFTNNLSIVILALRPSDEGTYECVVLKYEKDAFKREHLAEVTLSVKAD", "MFI", 25900],
  ["variant CD80 IgV-Fc Q27L/E35D/M47V/I61V/L85M (Fc fusion, not shown: a dimerising Fc or GST) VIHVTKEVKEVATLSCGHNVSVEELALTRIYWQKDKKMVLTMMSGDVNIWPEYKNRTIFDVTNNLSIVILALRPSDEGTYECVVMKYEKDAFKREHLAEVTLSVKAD", "MFI", 27900]
]}
